Ref: ChEMBL document CHEMBL1155290

CC50 at 120 h values by entry
measurement_protocol: Cytotoxicity against human MT4 cells as reduction in cell viability after 5 days by MTT assay
Format: cell-based

May I ask what CC50 at 120 h has been recorded for O=C1Nc2ccc(Cl)cc2[C@@](C#CC2CC2)(C(F)(F)F)O1 [EFAVIRENZ] ? > 6.34 µM

Then what about the molecule Cc1ccnc2c1NC(=O)c1cccnc1N2C1CC1 [NEVIRAPINE] ? > 15 µM

How about CC(C)Nc1cccnc1N1CCN(C(=O)c2cc3cc(NS(C)(=O)=O)ccc3[nH]2)CC1 [DELAVIRDINE] ? > 3.83 µM

As a next step, examine the molecule that follows.
Fill blank: measured CC50 at 120 h of the molecule Cc1cn([C@H]2C[C@H](N=[N+]=[N-])[C@@H](CO)O2)c(=O)[nH]c1=O [ZIDOVUDINE] is ____. > 93.5 µM
